- assay_remarks: Unbound ligand in Han Wistar rat plasma at 70.9 umol.kg, po
- Type: ADME, organism-based
endpoint_label: fraction unbound
API doc: respond with a numeric literal and nothing else, no unit.

Exam item: Item `CCNCc1cnc(-c2ccc(C(=O)Nc3ccccc3N)cc2)s1` has what recorded fraction unbound?
Marked response: 0.54

----------
- assay_remarks: Solubility of the compound at pH 7.4
- condition_label: buffer
endpoint_label: solubility

>>> meas_value("CCNCc1cnc(-c2ccc(C(=O)Nc3ccccc3N)cc2)s1")
"> 500 µM"

# input for lookup
Exam item: Item `CCCNCc1cnc(-c2ccc(C(=O)Nc3ccccc3N)cc2)s1` has what recorded solubility?
Marked response: > 500 µM

Data credit: ChEMBL document CHEMBL1144842
